# test_description: physchem
# Type: physicochemical
# run_parameters: water, thermodynamic from solid
test_readout: solubility

{"molecule": "CS(=O)(=O)c1ccc([C@@H](OP(=O)(O)O)[C@@H](CF)NC(=O)C(Cl)Cl)cc1 [florfenicol phosphate ester]", "test_readout": "solubility", "reported": "> 600 mg/mL"}
